test: Solid-state stability test, one week, HPLC purity; assay type: physicochemical; conditions: initial, before storage
PROPERTY_MEASURED: HPLC purity, Initial purity (Area %)

• CC1=Nc2c(F)cc(-c3nc(Nc4ccc(C5CCN(C)CC5)cn4)ncc3F)cc2C12CCCC2.O=C(O)/C=C/C(=O)O [Fumarate crystal form C] = 99.48
• CC1=Nc2c(F)cc(-c3nc(Nc4ccc(C5CCN(C)CC5)cn4)ncc3F)cc2C12CCCC2.CS(=O)(=O)O [Methanesulfonate crystal form A, reference compound] = 99.81
• CC1=Nc2c(F)cc(-c3nc(Nc4ccc(C5CCN(C)CC5)cn4)ncc3F)cc2C12CCCC2.O=C(O)/C=C\C(=O)O [Maleate crystal form B] = 99.91
• CC1=Nc2c(F)cc(-c3nc(Nc4ccc(C5CCN(C)CC5)cn4)ncc3F)cc2C12CCCC2.O=C(O)CCC(=O)O [Succinate crystal form A] = 99.94

---

assay: Solid-state stability test, one week, HPLC purity; assay type: physicochemical; settings: initial, before storage
PROPERTY_MEASURED: HPLC purity, Initial purity (Area %)

* CC1=Nc2c(F)cc(-c3nc(Nc4ccc(C5CCN(C)CC5)cn4)ncc3F)cc2C12CCCC2.O=C(O)/C=C/C(=O)O [Fumarate crystal form A] | 99.92
* CC1=Nc2c(F)cc(-c3nc(Nc4ccc(C5CCN(C)CC5)cn4)ncc3F)cc2C12CCCC2 [Free base crystal form A, reference compound] | 100.00
* CC1=Nc2c(F)cc(-c3nc(Nc4ccc(C5CCN(C)CC5)cn4)ncc3F)cc2C12CCCC2 [Adipate crystal form A] | 99.90

Reference source: patent US20220168302A1
